Catalogue of standardised AUC readings, one per entry.
test system: VA-ES-BJ; test: standardised AUC of viability dose-response curve (72 h) (fraction (0-1)); higher = less growth inhibition (more resistant)
Just the number, please, no unit attached.

stdin: Query (compound): O=C1NC(=O)[C@@H](c2cn3c4c(cccc24)CCC3)[C@@H]1c1c[nH]c2ccccc12 [TIVANTINIB] ; field requested: standardised AUC
stdout: 0.829

stdin: Query (compound): COc1cc(CCc2cc(NC(=O)c3ccc(N4CC(C)NC(C)C4)cc3)n[nH]2)cc(OC)c1 (stereo unspecified) ; field requested: standardised AUC
stdout: 0.987

stdin: Query (compound): "CNC(=O)c1ccccc1Sc1ccc2c(/C=C/c3ccccn3)n[nH]c2c1" ; field requested: standardised AUC
stdout: 0.901

stdin: Query (compound): "Clc1ccc(Nc2nnc(Cc3ccncc3)c3ccccc23)cc1" ; field requested: standardised AUC
stdout: 1

stdin: Query (compound): "N#CCNC(=O)c1ccc(-c2ccnc(Nc3ccc(N4CCOCC4)cc3)n2)cc1" ; field requested: standardised AUC
stdout: 0.964

stdin: Query (compound): "CC1(C)CC=C(c2nc(C3CC(C)(C)OC(C)(C)C3)ccc2NC(=O)c2nc(C#N)c[nH]2)CC1" ; field requested: standardised AUC
stdout: 0.991

----------
test system: RD; test: relative viability vs DMSO control (72 h) (fraction); higher = more viable cells; settings: 0.01372 µM
testReadout: relative viability

Illustrative cases are given below, each with its answer.
smi | assayedTarget | relative viability
CNC(=O)c1nnc(NC(=O)C2CC2)cc1Nc1cccc(-c2ncn(C)n2)c1OC | RD | 1.1
Cn1ncnc1[C@H]1c2n[nH]c(=O)c3cc(F)cc(c23)N[C@@H]1c1ccc(F)cc1 | RD | 0.842
COc1cc(OC)c(/C=C/S(=O)(=O)Cc2ccc(OC)c(NCC(=O)O)c2)c(OC)c1 | RD | 1.05
C[C@H](Nc1ncnc2nc[nH]c12)c1cc2cccc(Cl)c2c(=O)n1-c1ccccc1 | RD | 1.12
O=C(Nc1ccc(OC(F)(F)Cl)cc1)c1cnc(N2CC[C@@H](O)C2)c(-c2cc[nH]n2)c1 | RD | 1.05

stdin: Query (compound): "CNC(=O)c1ccccc1Sc1ccc2c(/C=C/c3ccccn3)n[nH]c2c1" ; field requested: relative viability
stdout: 1.01

stdin: Query (compound): "COc1cc(Nc2ncc(F)c(Nc3ccc4c(n3)N(COP(=O)(O)O)C(=O)C(C)(C)O4)n2)cc(OC)c1OC" ; field requested: relative viability
stdout: 1.11

stdin: Query (compound): "CC(C)NC[C@@H](C(=O)N1CCN(c2ncnc3c2[C@H](C)C[C@H]3O)CC1)c1ccc(Cl)cc1" ; field requested: relative viability
stdout: 1.07

----------
Catalogue of relative viability readings, one per entry.
system: HT1080; assay: relative viability vs DMSO control (72 h) (fraction); higher = more viable cells; details: 0.00051 µM

stdin: Query (compound): "CC[C@@H]1CN(C(=O)NCC(F)(F)F)C[C@@H]1c1cnc2cnc3[nH]ccc3n12" ; field requested: relative viability
stdout: 1.06

----------
Catalogue of relative viability readings, one per entry.
tested on: KHOS-NP; test: relative viability vs DMSO control (72 h) (fraction); higher = more viable cells; details: 10 µM

Illustrative cases are given below, each with its answer.
compound | result
CNC(=O)c1nnc(NC(=O)C2CC2)cc1Nc1cccc(-c2ncn(C)n2)c1OC | 1.05
O=C(Nc1nc2cccc(-c3ccc(CN4CCS(=O)(=O)CC4)cc3)n2n1)C1CC1 [Filgotinib] | 1.09
Cc1cccc(-c2nn3c(c2-c2ccnc4ccc(C(N)=O)cc24)CCC3)n1 [Galunisertib] | 0.976
O=C1NC(=O)[C@@H](c2cn3c4c(cccc24)CCC3)[C@@H]1c1c[nH]c2ccccc12 [Tivantinib] | 0.374
Cc1cc2c(F)c(Oc3ncnn4cc(OC[C@@H](C)O)c(C)c34)ccc2[nH]1 [Brivanib] | 0.964

stdin: Query (compound): Cn1ncnc1[C@H]1c2n[nH]c(=O)c3cc(F)cc(c23)N[C@@H]1c1ccc(F)cc1 [Talazoparib] ; field requested: relative viability
stdout: 0.607

stdin: Query (compound): Cc1cc2cc(Oc3ccnc(Nc4cccc(CS(=O)(=O)NCCN(C)C)c4)n3)ccc2[nH]1 [Sulfatinib] ; field requested: relative viability
stdout: 0.963

stdin: Query (compound): CC(C)(O)CNc1nc(Nc2ccnc(C(F)(F)F)c2)nc(-c2cccc(C(F)(F)F)n2)n1 [Enasidenib] ; field requested: relative viability
stdout: 1.05

stdin: Query (compound): N#CCNC(=O)c1ccc(-c2ccnc(Nc3ccc(N4CCOCC4)cc3)n2)cc1 [Momelotinib] ; field requested: relative viability
stdout: 0.983

stdin: Query (compound): COC(=O)N[C@@H](C)CNc1nccc(-c2cn(C(C)C)nc2-c2cc(Cl)cc(NS(C)(=O)=O)c2F)n1 [Encorafenib] ; field requested: relative viability
stdout: 0.435

stdin: Query (compound): CNC(=O)c1ccccc1Sc1ccc2c(/C=C/c3ccccn3)n[nH]c2c1 [Axitinib] ; field requested: relative viability
stdout: 0.405

----------
test system: RD-ES; test: standardised AUC of viability dose-response curve (72 h) (fraction (0-1)); higher = less growth inhibition (more resistant)
Quick rule for you: standardised AUC at 0.9 or higher means True, lower means False.

compound | assayedTarget | label
Cc1cccc(-c2nn3c(c2-c2ccnc4ccc(C(N)=O)cc24)CCC3)n1 [GALUNISERTIB] | RD-ES | True
N#CC1(c2ccc(NC(=O)c3cccnc3NCc3ccncc3)cc2)CCCC1 [APATINIB] | RD-ES | True
N#CCNC(=O)c1ccc(-c2ccnc(Nc3ccc(N4CCOCC4)cc3)n2)cc1 [MOMELOTINIB] | RD-ES | True
CCN1C(=O)N(c2c(F)c(OC)cc(OC)c2F)Cc2cnc3[nH]c(CN4CCOCC4)cc3c21 [PEMIGATINIB] | RD-ES | True
CCc1cnn2c(NCc3ccc[n+]([O-])c3)cc(N3CCCC[C@H]3CCO)nc12 [DINACICLIB] | RD-ES | False
CCN(CC)CCNC(=O)c1c(C)[nH]c(/C=C2\C(=O)Nc3ccc(F)cc32)c1C [SUNITINIB] | RD-ES | False
CO[C@H]1C[C@@H]2CC[C@@H](C)[C@@](O)(O2)C(=O)C(=O)N2CCCC[C@H]2C(=O)O[C@H]([C@H](C)C[C@@H]2CC[C@@H](OCCO)[C@H](OC)C2)CC(=O)[C@H](C)/C=C(\C)[C@@H](O)[C@@H](OC)C(=O)[C@H](C)C[C@H](C)/C=C/C=C/C=C/1C [CERTICAN] | RD-ES | False

Then this compound:
stdin: Record O=C(Nc1nc2cccc(-c3ccc(CN4CCS(=O)(=O)CC4)cc3)n2n1)C1CC1 [FILGOTINIB] ; criterion: standardised AUC no lower than 0.9. Met?
stdout: True

----------
tested on: SYO-1; experiment: standardised AUC of viability dose-response curve (72 h) (fraction (0-1)); higher = less growth inhibition (more resistant)
Catalogue of standardised AUC readings, one per entry.

Illustrative cases are given below, each with its answer.
molecule | assayedTarget | standardised AUC
C[C@]12O[C@H](C[C@]1(O)CO)n1c3ccccc3c3c4c(c5c6ccccc6n2c5c31)CNC4=O [LESTAURTINIB] | SYO-1 | 0.656
CC(C)(O)CNc1nc(Nc2ccnc(C(F)(F)F)c2)nc(-c2cccc(C(F)(F)F)n2)n1 [ENASIDENIB] | SYO-1 | 0.958

From here, focus on the item given below.
stdin: Query (molecule): CC1(C)CC=C(c2nc(C3CC(C)(C)OC(C)(C)C3)ccc2NC(=O)c2nc(C#N)c[nH]2)CC1 [EDICOTINIB] ; field requested: standardised AUC
stdout: 1

----------
test system: RD-ES; experiment: relative viability vs DMSO control (72 h) (fraction); higher = more viable cells; conditions: 0.01372 µM
Catalogue of relative viability readings, one per entry.
Just the number, please, no unit attached.

Illustrative cases are given below, each with its answer.
compound | relative viability
CC(C)NC[C@@H](C(=O)N1CCN(c2ncnc3c2[C@H](C)C[C@H]3O)CC1)c1ccc(Cl)cc1 | 0.925
CNC(=O)c1nnc(NC(=O)C2CC2)cc1Nc1cccc(-c2ncn(C)n2)c1OC | 1.02
O=S(=O)(c1cccc2cnccc12)N1CCCNCC1 | 0.979

stdin: Query (compound): "Cn1ncnc1[C@H]1c2n[nH]c(=O)c3cc(F)cc(c23)N[C@@H]1c1ccc(F)cc1" ; field requested: relative viability
stdout: 0.609

stdin: Query (compound): "CCN(CC)CCNC(=O)c1c(C)[nH]c(/C=C2\C(=O)Nc3ccc(F)cc32)c1C" ; field requested: relative viability
stdout: 0.964

stdin: Query (compound): O=C1NC(=O)[C@@H](c2cn3c4c(cccc24)CCC3)[C@@H]1c1c[nH]c2ccccc12 [Tivantinib] ; field requested: relative viability
stdout: 1

stdin: Query (compound): "Clc1ccc(Nc2nnc(Cc3ccncc3)c3ccccc23)cc1" ; field requested: relative viability
stdout: 0.967

stdin: Query (compound): "Cc1cccc(-c2nn3c(c2-c2ccnc4ccc(C(N)=O)cc24)CCC3)n1" ; field requested: relative viability
stdout: 0.979

stdin: Query (compound): "Cc1cc2c(F)c(Oc3ncnn4cc(OC[C@@H](C)O)c(C)c34)ccc2[nH]1" ; field requested: relative viability
stdout: 0.996

stdin: Query (compound): "CO[C@H]1C[C@@H]2CC[C@@H](C)[C@@](O)(O2)C(=O)C(=O)N2CCCC[C@H]2C(=O)O[C@H]([C@H](C)C[C@@H]2CC[C@@H](OCCO)[C@H](OC)C2)CC(=O)[C@H](C)/C=C(\C)[C@@H](O)[C@@H](OC)C(=O)[C@H](C)C[C@H](C)/C=C/C=C/C=C/1C" ; field requested: relative viability
stdout: 0.772

stdin: Query (compound): "CC[C@@H]1CN(C(=O)NCC(F)(F)F)C[C@@H]1c1cnc2cnc3[nH]ccc3n12" ; field requested: relative viability
stdout: 1

stdin: Query (compound): "Cn1cc(C2=C(c3cn(C4CCN(Cc5ccccn5)CC4)c4ccccc34)C(=O)NC2=O)c2ccccc21" ; field requested: relative viability
stdout: 0.996

stdin: Query (compound): "CC(C)(C)c1nc(-c2cccc(NS(=O)(=O)c3c(F)cccc3F)c2F)c(-c2ccnc(N)n2)s1" ; field requested: relative viability
stdout: 0.911

The values you see were collected from the supplement of paper PMC10883282.
